Below, each of the molecules is paired with its reported LBPA endosome anti-LBPA integrated intensity (z-score) value.
System: HeLa MZ
Experiment: LBPA endosome anti-LBPA integrated intensity (sum per cell), Z-score; higher = more LBPA staining
Conditions: compound concentration in added solution (µM; 5 µl added to 20 µl cells): 10; 18 h
Counter-ions that a name gives are not always drawn.
Give your answer as a number; write no unit.

CC(=O)Nc1c(I)c(C(=O)N[C@H]2C(O)O[C@H](CO)[C@@H](O)[C@@H]2O)c(I)c(N(C)C(C)=O)c1I (stereo partly drawn) [Metrizamide]; -0.295
CN1CCC(=C2c3ccccc3CCc3sccc32)CC1 [Pizotifen malate]; 2.11
NCCCC(O)(P(=O)(O)O)P(=O)(O)O [Alendronate sodium]; -1.69

Prompt: Provide value of LBPA endosome anti-LBPA integrated intensity (z-score) for this record tested with HeLa MZ: C[C@]12CC[C@@H]3c4ccc(O)cc4CC[C@H]3[C@@H]1CC[C@@H]2O
Response: 0.492

Prompt: Provide value of LBPA endosome anti-LBPA integrated intensity (z-score) for this record tested with HeLa MZ: CC1(C)[C@H](C(=O)O)N2C(=O)C[C@H]2S1(=O)=O
Response: -1.27

Prompt: Provide value of LBPA endosome anti-LBPA integrated intensity (z-score) for this record tested with HeLa MZ: COc1c2occc2c(OC)c2c(=O)cc(C)oc12
Response: -0.599

Prompt: Provide value of LBPA endosome anti-LBPA integrated intensity (z-score) for this record tested with HeLa MZ: CCOC(=O)[C@H](CCc1ccccc1)N[C@@H](C)C(=O)N1[C@H](C(=O)O)C[C@@H]2CCC[C@@H]21
Response: -1.57

Prompt: Provide value of LBPA endosome anti-LBPA integrated intensity (z-score) for this record tested with HeLa MZ: COc1ccc2c3c1O[C@H]1C[C@@H](O)C=C[C@@]31CCN(C)C2 [Galanthamine hydrobromide]
Response: -0.476
